Ref: patent US20260317344A1

# TARGET_UNDER_TEST: EGFR (L858R/T790M) (Homo sapiens, UniProt P00533, L858R/T790M)
# Sequence (P00533 25-1210 T790M/L858R): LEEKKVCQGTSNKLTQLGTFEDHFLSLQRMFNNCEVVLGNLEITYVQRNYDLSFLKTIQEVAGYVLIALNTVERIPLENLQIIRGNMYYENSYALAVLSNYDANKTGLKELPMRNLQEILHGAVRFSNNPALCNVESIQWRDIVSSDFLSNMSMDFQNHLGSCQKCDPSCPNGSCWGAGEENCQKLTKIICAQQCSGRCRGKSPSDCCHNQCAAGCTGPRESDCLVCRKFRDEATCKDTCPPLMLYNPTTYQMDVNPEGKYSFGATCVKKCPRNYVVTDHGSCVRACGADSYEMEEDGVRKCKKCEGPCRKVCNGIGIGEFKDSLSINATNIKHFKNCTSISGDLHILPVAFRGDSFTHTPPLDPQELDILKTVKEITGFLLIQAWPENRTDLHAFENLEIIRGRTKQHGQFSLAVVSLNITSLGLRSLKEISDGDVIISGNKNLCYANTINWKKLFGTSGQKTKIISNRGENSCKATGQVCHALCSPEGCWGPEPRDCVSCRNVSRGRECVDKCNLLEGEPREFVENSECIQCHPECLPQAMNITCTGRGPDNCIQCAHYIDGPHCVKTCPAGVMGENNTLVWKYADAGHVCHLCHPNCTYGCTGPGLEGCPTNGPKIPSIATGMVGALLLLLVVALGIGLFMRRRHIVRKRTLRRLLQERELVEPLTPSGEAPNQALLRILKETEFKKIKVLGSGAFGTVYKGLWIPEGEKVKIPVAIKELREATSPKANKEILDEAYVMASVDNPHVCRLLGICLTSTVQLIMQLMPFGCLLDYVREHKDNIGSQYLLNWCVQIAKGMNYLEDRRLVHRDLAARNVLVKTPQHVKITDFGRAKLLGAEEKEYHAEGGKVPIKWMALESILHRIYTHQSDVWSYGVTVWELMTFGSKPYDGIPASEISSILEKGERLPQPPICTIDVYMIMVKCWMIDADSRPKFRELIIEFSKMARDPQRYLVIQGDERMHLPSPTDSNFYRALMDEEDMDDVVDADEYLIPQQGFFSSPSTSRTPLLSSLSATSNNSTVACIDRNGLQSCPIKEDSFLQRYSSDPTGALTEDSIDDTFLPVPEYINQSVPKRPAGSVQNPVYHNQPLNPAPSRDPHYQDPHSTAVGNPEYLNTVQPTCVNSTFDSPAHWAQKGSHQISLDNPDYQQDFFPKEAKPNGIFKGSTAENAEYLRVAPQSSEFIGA
# ASSAY_COMMENT: HotSpot radiometric kinase assay, inhibition of EGFR L858R/T790M mutant
# RECORDED_CONDITIONS: 33P ATP, room temperature, 120 m
Please respond with reported IC50 for every item in the list.
Write your answer as a measured quantity: the number, then the unit.

Task item: IC50 for CCOc1nn([C@@H](C)CO)c2c1/C=C/c1n[nH]c3cnc(cc13)-c1c(C)nn(C)c1O[C@H](C)CN(CC)C2 [Ex. 24] ?
Reply: 0.94 nM

Task item: Look up IC50 for this compound: CC(C)Oc1nn(CCO)c2c1/C=C/c1n[nH]c3cnc(cc13)-c1cnn(C)c1O[C@H](C)CN(C(C)C)C2 [Ex. 3]
Reply: 1.33 nM

Task item: What does the record list as IC50 for CCN1Cc2c(c(OCC#N)nn2CCO)/C=C/c2n[nH]c3cnc(cc23)-c2c(C)nn(C)c2O[C@@H](C)C1 [Ex. 23] ?
Reply: 0.6 nM

Task item: Data request, read-out IC50, for Cc1nn(CCO)c2c1/C=C/c1n[nH]c3cnc(cc13)-c1c(C)nn(C)c1O[C@H](C)CN(C(C)C)C2 [Ex. 20]
Reply: 0.81 nM

Task item: Look up IC50: CCOc1nn(CCO)c2c1/C=C/c1n[nH]c3cnc(cc13)-c1cnn(C)c1O[C@@H](C)CN(C(C)C)C2 [Ex. 11]
Reply: 0.44 nM

Task item: Quick one: IC50 for CCOc1nn([C@@H](C)CO)c2c1/C=C/c1n[nH]c3cnc(cc13)-c1c(C)nn(C)c1OC[C@H](C)N(CC)C2 [Ex. 25] ?
Reply: 1.39 nM

Task item: Returns the measured IC50 for the input compound. Input: CCOc1nn(CCO)c2c1/C=C/c1n[nH]c3cnc(cc13)-c1c(C)nn(C)c1O[C@@H](C)CN(CC)C2 [Ex. 15]
Reply: 0.37 nM

Task item: State the recorded IC50 for this entry: CCN1Cc2c(c(OC(C)C)nn2CCO)/C=C/c2n[nH]c3cnc(cc23)-c2cnn(C)c2O[C@@H](C)C1 [Ex. 9]
Reply: 0.45 nM

Task item: Give the measured IC50 of CCOc1nn([C@@H](C)CO)c2c1/C=C/c1n[nH]c3c(C)nc(cc13)-c1c(C)nn(C)c1O[C@@H](C)CN(C)C2 [Ex. 54] .
Reply: 1.04 nM

Task item: For the compound CCOc1nn(CCO)c2c1/C=C/c1n[nH]c3cnc(cc13)-c1c(C)nn(C)c1O[C@H](C)CN(CC)C2 [Ex. 17] , what IC50 is on record?
Reply: 0.97 nM

Task item: Requested field: IC50. Item: CCOc1nn([C@@H](C)CO)c2c1/C=C/c1n[nH]c3c(C)nc(cc13)-c1c(C)nn(C)c1O[C@H](C)[C@H]1CCCN1C2 [Ex. 180]
Reply: 0.16 nM

Task item: Which IC50 value is on record for CCOc1nn([C@@H](C)CO)c2c1/C=C/c1n[nH]c3cnc(cc13)-c1c(C)nn(C)c1O[C@@H](C)CN(C1CC1)C2 [Ex. 110] ?
Reply: 0.5 nM

Task item: Requested field: IC50. Item: CCN1Cc2c(c(OC(C)C)nn2CCO)/C=C/c2n[nH]c3cnc(cc23)-c2cnn(C)c2O[C@H](C)C1 [Ex. 10]
Reply: 0.46 nM

Task item: IC50 lookup needed for CCOc1nn([C@@H](C)CO)c2c1/C=C/c1n[nH]c3cnc(cc13)-c1c(C)nn(C)c1O[C@@H](C)CN(CC)C2 [Ex. 26] , thanks.
Reply: 1.44 nM
